Tested on: IGROV-1
ASSAY COMMENT: NCI tumour cell line growth inhibition, 48 h
Activity calls are given as the source filed them. Rule as the data show it: active = GI50 up to about 1.1 µM and inactive = higher.
MEASURE: GI50

NCCCNCCSSCCCCS(=O)O	> 100 µM (inactive)
Cc1ccc2c(=O)c3c(O)c4c(cc3n(C)c2c1)OC(C)(C)C=C4	> 10 µM (inactive)
COc1ccc(CCN2CCN(CCCc3ccccc3)CC2)cc1	96.8 µM (inactive)
O=C1C2=Nc3ccccc3C(O)(C(=O)O)N2c2ccccc21 (configuration not stated)	37.7 µM (inactive)

Data request: Field request: GI50 | item: O=C1/C(=C/c2ccc(Cl)cc2)CNC/C1=C\c1ccc(Cl)cc1
Data returned: 2.17 µM (inactive)

Data request: Field request: GI50 | item: CCOC(=O)Oc1ccc(C(CNC(C)C)OC(=O)OCC)cc1OC(=O)OCC (configuration not stated)
Data returned: > 100 µM (inactive)

Data request: Field request: GI50 | item: CSc1nc2c(c(=O)n1C)N=C(c1ccc([N+](=O)[O-])cc1)CC(c1ccccc1)N2 (configuration not stated)
Data returned: > 100 µM (inactive)

====

The following compounds are listed with their measured GI50 values.
System: DU-145
ASSAY COMMENT: NCI tumour cell line growth inhibition, 48 h
Activity calls are given as the source filed them. Cut-off read from the data, not from the text of the source: active = GI50 up to about 1.1 µM and inactive = higher. *1 amine or outer side, *2 acyl side, *3 side chain or, on linkers, in order; H or OH if unused. Where a SMILES comes first, the peptide text is derived from it. Bridges are numbered along the chain shown (N, C = ends). [ ]: non-standard residue; d: D form. ξ: configuration not given here. X10 = CCC(C)C(N[*:1])C(O)CC(=O)O[C@H](C(=O)C(C)C(=O)[*:2])C(C)C; NMeY = CN[C@@H](Cc1ccc(O)cc1)C(=O)O; ξNMeL = CNC(CC(C)C)C(=O)O; ξT = CC(O)C(N)C(=O)O

CCC(C)NC(=S)N/N=C(\C)c1nc2cccnc2[nH]1 (stereo unspecified)	16.9 µM (inactive)
O=C1C=CC2CCC1C2 (stereo unspecified)	34.2 µM (inactive)
CC(C)=CCC[C@@H](C)C1=C(O)C(O)C(C)=C2N=C(c3ccccc3)C(=O)OC21 (stereo partly specified)	4.36 µM (inactive)
CCN(CC)c1ccc2cc(C(N)=S)c(=N)oc2c1	> 100 µM (inactive)

Data request: Field request: GI50 | item: CCC(C)C1NC(=O)C(NC(=O)C(CC(C)C)N(C)C(=O)[C@@H]2CCCN2)C(C)OC(=O)[C@H](Cc2ccc(OC)cc2)N(C)C(=O)[C@@H]2CCCN2C(=O)[C@H](CC(C)C)NC(=O)C(C)C(=O)[C@H](C(C)C)OC(=O)CC1O (stereo partly specified) (H-P[ξNMeL][ξT][X10]LP[NMeY](Me); ester 3-C)
Data returned: 0.00227 µM (active)

Data request: Field request: GI50 | item: Cc1cc(C2(c3cc(C)c(O)c(C(=O)O)c3)OS(=O)(=O)c3ccccc32)cc(C(=O)O)c1O
Data returned: > 100 µM (inactive)

====

The following compounds are listed with their measured GI50 values.
Tested on: UO-31
ASSAY COMMENT: NCI tumour cell line growth inhibition, 48 h
Calls of active or inactive are those of the source. Cut-off read from the data, not from the text of the source: active = GI50 up to about 1.1 µM and inactive = higher.

These recorded examples may help you get a feel for the data.
C=CCOc1ccc2c(C)cc(=O)oc2c1C	29.5 µM (inactive)
COCCOC1=CC(=O)c2c(O)ccc(O)c2C1=O	2.17 µM (inactive)
CC(C)C1CN1CC(O)Cn1ccnc1[N+](=O)[O-] (stereo unspecified)	> 100 µM (inactive)

Data request: Field request: GI50 | item: NCCCNCCSSCc1ccccc1CSSCCNCCCN
Data returned: 60.5 µM (inactive)

Data request: Field request: GI50 | item: O=C1Nc2ccccc2S/C1=C\c1ccccc1C(F)(F)F
Data returned: > 100 µM (inactive)

Data request: Field request: GI50 | item: c1ccc2c(c1)n1nnnc1c1nnnn21
Data returned: > 100 µM (inactive)

Data request: Field request: GI50 | item: CCSSCS(C)(=O)=O
Data returned: 11 µM (inactive)

Data request: Field request: GI50 | item: COc1ccc(C2c3cc4c(cc3OC(O)(CO)C2C(=O)O)OCO4)c(OC)c1OC.COc1ccc(C2c3cc4c(cc3OC3(O)COC(=O)C23)OCO4)c(OC)c1OC (stereo unspecified)
Data returned: > 100 µM (inactive)

Data request: Field request: GI50 | item: COc1ccccc1NC(=S)N/N=C/c1cccc(C)n1
Data returned: 3.57 µM (inactive)

Data request: Field request: GI50 | item: C=CCN(N=O)C(=O)NCCCCC(NC(C)=O)C(=O)NCc1ccccc1 (stereo unspecified)
Data returned: > 100 µM (inactive)

Data request: Field request: GI50 | item: Cc1ccc(S(=O)(=O)n2c3ccc(Br)cc3c3nc4ccccc4nc32)cc1
Data returned: > 100 µM (inactive)

====

The following compounds are listed with their measured GI50 values.
System: KM12
ASSAY COMMENT: NCI tumour cell line growth inhibition, 48 h
Active and inactive are the calls of the source. Rule as the data show it: active = GI50 up to about 1.1 µM and inactive = higher.

These recorded examples may help you get a feel for the data.
CC(=O)C(C(=O)C(=O)Nc1cc(Cl)c(Cl)cc1Cl)c1csc(N)n1 (centres undefined)	> 100 µM (inactive)
Cn1cc(C[C@@H](N)C(=O)O)c2ccccc21 [INDOXIMOD]	> 100 µM (inactive)
NCCCNCCSSCc1ccccc1CSSCCNCCCN	49.9 µM (inactive)
CC(C)C1CC(CO)(CNc2nc(N)nc(Cl)c2C=O)C1 (centres undefined)	7.35 µM (inactive)
CCOC(=O)Oc1ccc(C(CNC(C)C)OC(=O)OCC)cc1OC(=O)OCC (centres undefined)	> 100 µM (inactive)
O=[N+]([O-])C(=C1Nc2ccccc2N1)/C(Cl)=C(/Cl)N1CCOCC1	> 100 µM (inactive)
O=C(CCC(=O)c1ccc(Cl)cc1)NO	> 100 µM (inactive)
Cc1sc2nc3n(c(=O)c2c1C)N=C(c1ccc(Cl)cc1)CS3	> 100 µM (inactive)
COc1ccccc1NC(=O)CC(=O)NNCC(=O)Nc1nnc(-c2ccccc2)o1	> 100 µM (inactive)
CC(=O)/C=C1/c2ccccc2N(C(C)=O)C1O (centres undefined)	> 100 µM (inactive)

Data request: Field request: GI50 | item: Cc1ccc(C)c(N2C(=O)C(=O)C(c3nc4ccccc4s3)C(=O)C2=O)c1
Data returned: > 100 µM (inactive)

Data request: Field request: GI50 | item: C=CCN(N=O)C(=O)N(CCCC(NC(C)=O)C(=O)NCc1ccccc1)Cc1ccccc1 (centres undefined)
Data returned: 42.4 µM (inactive)

Data request: Field request: GI50 | item: CC(=O)c1sc2c(c1OC(=O)c1cccs1)c(=O)n(-c1ccccc1)c(=S)n2-c1ccccc1
Data returned: 23 µM (inactive)

Data request: Field request: GI50 | item: COc1ccc(/C=C/C(=O)CC(=O)/C=C/c2ccc(OC)cc2)cc1
Data returned: > 100 µM (inactive)

Data request: Field request: GI50 | item: c1ccc2c(c1)Sc1ccccc1N2C1CN2CCC1CC2 (centres undefined)
Data returned: 15.2 µM (inactive)

Data request: Field request: GI50 | item: O=C1CSC(c2ccc([N+](=O)[O-])cc2)N1c1ccc(-c2ccc(-n3c(-c4ccccc4)nc4ccccc4c3=O)cc2)cc1 (centres undefined)
Data returned: 21.4 µM (inactive)

Data request: Field request: GI50 | item: CC(=O)CC1(O)C(=O)c2c(Br)sc(Br)c2C1=O
Data returned: 34.3 µM (inactive)

====

The following compounds are listed with their measured GI50 values.
Test system: SW-620
ASSAY COMMENT: NCI tumour cell line growth inhibition, 48 h
Calls of active or inactive are those of the source. No stated cut-off is given here; in the data, active = GI50 up to about 1.1 µM and inactive = higher.

These recorded examples may help you get a feel for the data.
CC1C(c2ccc3c(c2)OCO3)c2cc3c(cc2OC1N1CCCCC1)OCO3 (stereo not given)	55 µM (inactive)
CC(Oc1ccc2c(=O)cc(-c3ccccc3)oc2c1)C(=O)O (stereo not given)	> 100 µM (inactive)
COC(=O)C1(C(=O)OC)N=C(C)OC1/C=C/c1ccccc1 (stereo not given)	> 100 µM (inactive)
O=C1NN=C(c2ccc(Cl)cc2)CC1C1C(=O)N(c2ccccc2)N=C1c1ccccc1 (stereo not given)	30.5 µM (inactive)

Data request: Request: GI50, test system SW-620, entry CC(=O)OCC1OC(n2c(C)c(C(C)=O)c(-c3ccc(Cl)cc3)c(C#N)c2=S)C(OC(C)=O)C(OC(C)=O)C1OC(C)=O (stereo not given)
Data returned: > 100 µM (inactive)

====

System: NCI-H460
ASSAY COMMENT: NCI tumour cell line growth inhibition, 48 h
Activity calls are given as the source filed them. Cut-off read from the data, not from the text of the source: active = GI50 up to about 1.1 µM and inactive = higher.
MEASURE: GI50

CC(Oc1ccc2c(=O)cc(-c3ccccc3)oc2c1)C(=O)O (centres undefined)	> 100 µM (inactive)
COc1cccc(C(=O)N[C@@H]2[C@H](O)[C@@H](CO)O[C@H]2n2cnc3c(N)ncnc32)c1	> 100 µM (inactive)
CCOC(=O)c1c(N=P(c2ccccc2)(c2ccccc2)c2ccccc2)nnc(-c2ccccc2)c1-c1ccccc1	> 100 µM (inactive)
COc1ccc(CCN2CCN(CCCc3ccccc3)CC2)cc1	84.5 µM (inactive)

Data request: Field request: GI50 | item: COc1cc2c(oc(=O)c3c4occc4cc(OC)c23)c2cccc(OCc3ccccc3)c12
Data returned: 44.9 µM (inactive)

Data request: Field request: GI50 | item: c1cc2nnc1SCCSCCSc1ccc(nn1)SCCSCCS2
Data returned: > 100 µM (inactive)

Data request: Field request: GI50 | item: CC1=NN(c2cccc(Cl)c2)C2(C1)SCC(=O)N2c1nc2ccccc2s1 (centres undefined)
Data returned: 21.6 µM (inactive)

Data request: Field request: GI50 | item: COC(=O)/C(=N\NC(N)=O)C(C(=O)C=C(C)C)C(=O)C(=O)Nc1ccc(Cl)c(Cl)c1 (centres undefined)
Data returned: > 100 µM (inactive)

Data request: Field request: GI50 | item: O=C1CCC(=O)N1Sc1ccccc1
Data returned: > 100 µM (inactive)

Data request: Field request: GI50 | item: CC1=NN(C(=O)CC(=O)Nc2ccccc2C)C(=O)C1/N=N/c1ccc(C(=O)O)cc1 (centres undefined)
Data returned: > 100 µM (inactive)

Data request: Field request: GI50 | item: CCOC(=O)C(C(=O)COC(C)(C)C)[C@@H]1C=C[C@H](OC(C)=O)C1 (some centres undefined)
Data returned: > 100 µM (inactive)

Data request: Field request: GI50 | item: COc1ccc(COCC[C@H](C)OC2OC(CO)C(O)C(O)C2O)cc1 (some centres undefined)
Data returned: > 100 µM (inactive)

Data request: Field request: GI50 | item: CC(=O)O[C@H]1CC[C@@]2(C)C(=CC[C@@H]3[C@@H]2CC[C@]2(C)C(=N/O)/C(=C\c4ccccc4)C[C@@H]32)C1
Data returned: 17.5 µM (inactive)

Data request: Field request: GI50 | item: O=CN/C=C/c1cccc(O)c1
Data returned: 43.1 µM (inactive)
